System: RD-ES
protocol details: relative viability vs DMSO control (72 h) (fraction); higher = more viable cells
measurement conditions: 0.00457 µM
readout kind: relative viability
Answers are plain numbers.

INSERT INTO assay_data (molecule, readout_kind, measurement) VALUES
  ('O=C(Nc1ccc(OC(F)(F)Cl)cc1)c1cnc(N2CC[C@@H](O)C2)c(-c2cc[nH]n2)c1', 'relative viability', 0.926),
  ('CNC(=O)c1nnc(NC(=O)C2CC2)cc1Nc1cccc(-c2ncn(C)n2)c1OC', 'relative viability', 0.988),
  ('N#CC1(c2ccc(NC(=O)c3cccnc3NCc3ccncc3)cc2)CCCC1', 'relative viability', 0.946),
  ('CC[C@@H]1CN(C(=O)NCC(F)(F)F)C[C@@H]1c1cnc2cnc3[nH]ccc3n12', 'relative viability', 0.979),
  ('CCc1cnn2c(NCc3ccc[n+]([O-])c3)cc(N3CCCC[C@H]3CCO)nc12', 'relative viability', 0.886);

// each listed molecule needs a value for relative viability
1. CNC(=O)c1ccccc1Sc1ccc2c(/C=C/c3ccccn3)n[nH]c2c1
2. COc1cc(Nc2ncc(F)c(Nc3ccc4c(n3)N(COP(=O)(O)O)C(=O)C(C)(C)O4)n2)cc(OC)c1OC
3. COc1cc(CCc2cc(NC(=O)c3ccc(N4CC(C)NC(C)C4)cc3)n[nH]2)cc(OC)c1 (stereo not drawn)

0.947
0.958
0.961

* * *

Tested on: SW982
protocol details: relative viability vs DMSO control (72 h) (fraction); higher = more viable cells
measurement conditions: 0.00017 µM
readout kind: relative viability
One number for each entry.

The examples below pair each entry with its known result.
INSERT INTO assay_data (compound, test_system, measurement) VALUES
  ('COc1cc(Nc2ncc(F)c(Nc3ccc4c(n3)N(COP(=O)(O)O)C(=O)C(C)(C)O4)n2)cc(OC)c1OC', 'SW982', 1.05),
  ('C[C@]12O[C@H](C[C@]1(O)CO)n1c3ccccc3c3c4c(c5c6ccccc6n2c5c31)CNC4=O', 'SW982', 1.03),
  ('Cn1cc(C2=C(c3cn(C4CCN(Cc5ccccn5)CC4)c4ccccc34)C(=O)NC2=O)c2ccccc21', 'SW982', 1.06),
  ('CC[C@@H]1CN(C(=O)NCC(F)(F)F)C[C@@H]1c1cnc2cnc3[nH]ccc3n12', 'SW982', 1.01);

Kindly give each listed record's relative viability.
1. COc1cc(CCc2cc(NC(=O)c3ccc(N4CC(C)NC(C)C4)cc3)n[nH]2)cc(OC)c1 (stereo not drawn)
2. COCCNc1cc(NC(=O)N2CCCc3cc(CN4CCN(C)CC4=O)c(C=O)nc32)ncc1C#N
3. CC(C)Oc1ccc(-c2nn([C@@H](C)c3oc4ccc(F)cc4c(=O)c3-c3cccc(F)c3)c3ncnc(N)c23)cc1F
4. CC(C)(O)CNc1nc(Nc2ccnc(C(F)(F)F)c2)nc(-c2cccc(C(F)(F)F)n2)n1
5. Clc1ccc(Nc2nnc(Cc3ccncc3)c3ccccc23)cc1

1: 1; 2: 1.01; 3: 1.03; 4: 1.04; 5: 1.03

* * *

Can you tell me relative viability for the items I'm about to list?
Tested on: KHOS-240S
protocol details: relative viability vs DMSO control (72 h) (fraction); higher = more viable cells
measurement conditions: 0.00457 µM
Numbers only.

Use these answered entries as a reference point.
INSERT INTO assay_data (molecule, test_system, measurement) VALUES
  ('COC(=O)[C@@]1(O)C[C@H]2O[C@]1(C)n1c3ccccc3c3c4c(c5c6ccccc6n2c5c31)C(=O)NC4 [K-252a]', 'KHOS-240S', 1.06),
  ('Cn1ncnc1[C@H]1c2n[nH]c(=O)c3cc(F)cc(c23)N[C@@H]1c1ccc(F)cc1 [Talazoparib]', 'KHOS-240S', 0.969);

Hey, quick one: what's relative viability for each of these?
1. Clc1ccc(Nc2nnc(Cc3ccncc3)c3ccccc23)cc1 [Vatalanib]
2. CCc1cnn2c(NCc3ccc[n+]([O-])c3)cc(N3CCCC[C@H]3CCO)nc12 [Dinaciclib]
3. COC(=O)N[C@@H](C)CNc1nccc(-c2cn(C(C)C)nc2-c2cc(Cl)cc(NS(C)(=O)=O)c2F)n1 [Encorafenib]

[1.04, 0.913, 0.993]
